Let's look at some molecules and their measured viability, T/C.
test: Anticancer human tumor 997537-175-T-J1-PDC patient-derived colon adenocarcinoma cell line growth inhibition [POLQ]; details: 997537-175-T-J1-PDC complex spheroid viability, combination with POLQ inhibitors; second compound 3.16 µM; first compound 3.16 µM; hits give low values
Value expressed in %; do not type the unit.

Field: example entries. Status: answers known.
Molecule	Unit Of Measurement	viability, T/C
O=C(c1cc(Cc2n[nH]c(=O)c3ccccc23)ccc1F)N1CCN(C(=O)C2CC2)CC1 + COC1C(OC(N)=O)C(O)C(Oc2ccc3c(O)c(NC(=O)c4ccc(O)c(CC=C(C)C)c4)c(=O)oc3c2C)OC1(C)C	%	95.8
O=c1[nH]cc(F)c(=O)[nH]1 + Cc1cccc(N(C)C(=O)C2C(O)CCN2c2nc(C)cc(C(F)(F)F)c2C#N)c1	%	95.3
C#Cc1c(F)ccc2cc(O)cc(-c3ncc4c(N5CC6CCC(C5)N6)nc(OCC56CCCN5CC(F)C6)nc4c3F)c12 (stereo unspecified) + Cc1cccc(N(C)C(=O)C2C(O)CCN2c2nc(C)cc(C(F)(F)F)c2C#N)c1	%	101
CC1COCCN1c1cc(C2(S(C)(=N)=O)CC2)nc(-c2ccnc3[nH]ccc23)n1 (stereo unspecified) + Nc1ccc(C#CCN(C(=O)Cc2ncc(C(F)(F)F)cc2C(F)(F)F)c2ccc(F)cc2)nn1	%	66.9
CC1COCCN1c1cc(C2(O)CC3CCC(C2)O3)c2cnn(-c3ccn[nH]3)c2n1 (stereo unspecified) + Nc1ccc(C#CCN(C(=O)Cc2ncc(C(F)(F)F)cc2C(F)(F)F)c2ccc(F)cc2)nn1	%	42.8

Nc1ccn(C2OC(CO)C(O)C2(F)F)c(=O)n1 (stereo unspecified) + Nc1ccc(C#CCN(C(=O)Cc2ncc(C(F)(F)F)cc2C(F)(F)F)c2ccc(F)cc2)nn1 yielded viability, T/C of 70.8

* * *

test: Anticancer human tumor 997537-175-T-J1-PDC cell line growth inhibition [POLQ]; settings: 997537-175-T-J1-PDC complex spheroid viability, combination with POLQ inhibitors; second compound 0.1 µM; first compound 10 µM; hits give low values;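 note: luminescence signal used as a surrogate for viable cells; spheroids exposed to drugs for seven days before readout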
Recorded Metric: viability, T/C

Field: example entries. Status: answers known.
Compound	Experimental Value
COc1ccc([C@@H](O)c2cc(-c3ncnc4cc(N5CCOCC5)ccc34)c(F)cc2Cl)nn1 + Nc1ccc(C#CCN(C(=O)Cc2ncc(C(F)(F)F)cc2C(F)(F)F)c2ccc(F)cc2)nn1	71%
CNCc1ccc(-c2[nH]c3cc(F)cc4c3c2CCNC4=O)cc1 + Nc1ccc(C#CCN(C(=O)Cc2ncc(C(F)(F)F)cc2C(F)(F)F)c2ccc(F)cc2)nn1	101%
C=CC(=O)N1CCN(c2nc(=O)n(-c3c(C)ccnc3C(C)C)c3nc(-c4c(O)cccc4F)c(F)cc23)C(C)C1 (stereo not given) + COC1C(OC(N)=O)C(O)C(Oc2ccc3c(O)c(NC(=O)c4ccc(O)c(CC=C(C)C)c4)c(=O)oc3c2C)OC1(C)C	108%

COc1ccc([C@@H](O)c2cc(-c3ncnc4cc(N5CCOCC5)ccc34)c(F)cc2Cl)nn1 + COC1C(OC(N)=O)C(O)C(Oc2ccc3c(O)c(NC(=O)c4ccc(O)c(CC=C(C)C)c4)c(=O)oc3c2C)OC1(C)C yielded viability, T/C of 98.5%

CC1COCCN1c1cc(C2(O)CC3CCC(C2)O3)c2cnn(-c3ccn[nH]3)c2n1 (stereo not given) + COC1C(OC(N)=O)C(O)C(Oc2ccc3c(O)c(NC(=O)c4ccc(O)c(CC=C(C)C)c4)c(=O)oc3c2C)OC1(C)C yielded viability, T/C of 60.8%

O=C(Nc1ccc(O)c(NS(=O)(=O)c2ccc(F)cc2)c1)c1ccc(-c2ccccc2)cc1 + Nc1ccc(C#CCN(C(=O)Cc2ncc(C(F)(F)F)cc2C(F)(F)F)c2ccc(F)cc2)nn1 yielded viability, T/C of 87.5%

O=C(Nc1ccc(O)c(NS(=O)(=O)c2ccc(F)cc2)c1)c1ccc(-c2ccccc2)cc1 + COC1C(OC(N)=O)C(O)C(Oc2ccc3c(O)c(NC(=O)c4ccc(O)c(CC=C(C)C)c4)c(=O)oc3c2C)OC1(C)C yielded viability, T/C of 95.1%

COc1ccc([C@@H](O)c2cc(-c3ncnc4cc(N5CCOCC5)ccc34)c(F)cc2Cl)nn1 + Cc1cccc(N(C)C(=O)C2C(O)CCN2c2nc(C)cc(C(F)(F)F)c2C#N)c1 yielded viability, T/C of 77.7%

COc1cccc2c1C(=O)c1c(O)c3c(c(O)c1C2=O)CC(O)(C(=O)CO)CC3OC1CC(N)C(O)C(C)O1 (stereo not given) + COC1C(OC(N)=O)C(O)C(Oc2ccc3c(O)c(NC(=O)c4ccc(O)c(CC=C(C)C)c4)c(=O)oc3c2C)OC1(C)C yielded viability, T/C of 10.4%

COc1cc2cc(C(=O)CCC(=O)O)sc2cc1OC + Cc1cccc(N(C)C(=O)C2C(O)CCN2c2nc(C)cc(C(F)(F)F)c2C#N)c1 yielded viability, T/C of 93.3%
